B1: library; a variant is named by its letters at N, in order (parent)
chain: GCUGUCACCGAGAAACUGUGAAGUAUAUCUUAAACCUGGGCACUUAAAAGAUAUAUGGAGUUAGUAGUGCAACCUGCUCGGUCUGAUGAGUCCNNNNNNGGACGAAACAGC

# Variants of: B1
# ASSAY_NAME: normalized RNA/DNA level with ligand (relative to sTRSVctl = 100) (log10 (% of sTRSVctl)); HEK293T; ligand: cyclic di-GMP (c-di-GMP-II aptamer); ligand concentration (+) RNA-Seq: 1 mM; higher = less ribozyme self-cleavage, higher mRNA level
# PARTICULARS: reporter: mCherry (pCS4076), ligand present: yes
VALUE_TYPE: normalized RNA/DNA level with ligand (log10)
One number for each entry.

Consider the following illustrative entries.
# CHANGE, VALUE_REPORTED
data = [
    ("ACUCUG", 1.81),
    ("GCGUAA", 1.61),
    ("UGCCUC", 1.9),
    ("AUUGGC", 1.83),
]

Working through the 3 variants below one at a time, give normalized RNA/DNA level with ligand (log10) for each.
1. CGCUGG
2. CGCCAG
3. AUAAAC

[1.78, 1.9, 1.8]

Working through the 5 variants below one at a time, give normalized RNA/DNA level with ligand (log10) for each.
1. GAACUC
2. AAGUAA
3. CCACAC
4. AGGGGG
5. CUGCGC

1. 1.85
2. 1.63
3. 1.79
4. 1.81
5. 1.92

Working through the 5 variants below one at a time, give normalized RNA/DNA level with ligand (log10) for each.
1. CUAGCG
2. CAGGUA
3. UCUGAU
4. AUGAAU
5. GUAUCU

1: 1.85; 2: 1.67; 3: 1.83; 4: 1.72; 5: 1.82

Working through the 6 variants below one at a time, give normalized RNA/DNA level with ligand (log10) for each.
1. GACAUU
2. CCAUAU
3. CGCGAA
4. GUAUUG
5. GUACGA
6. GUCUUC

1. 1.8
2. 1.73
3. 1.44
4. 1.71
5. 1.64
6. 1.87

Working through the 2 variants below one at a time, give normalized RNA/DNA level with ligand (log10) for each.
1. GAUUGG
2. ACUUGA

[1.75, 1.72]

Working through the 4 variants below one at a time, give normalized RNA/DNA level with ligand (log10) for each.
1. GCGGCC
2. CGGACG
3. CUCUAC
4. AGACUC

1: 1.86; 2: 1.87; 3: 1.82; 4: 1.83

Working through the 6 variants below one at a time, give normalized RNA/DNA level with ligand (log10) for each.
1. ACAAUC
2. CACCGU
3. GGUCUA
4. AUUUCC
5. CCUCUG
6. ACCCCU

[1.7, 1.81, 1.72, 1.9, 1.81, 1.86]
